# System: MALME-3M melanoma
# assay: NCI tumour cell line growth inhibition, 48 h
experimental.endpoint: TGI

Answered cases to consult:
// returns reported TGI for input O=c1oc2cc(O)ccc2c(O)c1C(c1ccc(C(c2c(O)c3ccc(O)cc3oc2=O)c2c(O)c3ccc(O)cc3oc2=O)cc1)c1c(O)c2ccc(O)cc2oc1=O
> 100 µM

Form field: reported TGI of O=c1c2ccccc2nc(Nc2cccc(Cl)c2)n1/N=C/C=C/c1ccccc1
> 100 µM

Param item = O=C(O)CNS(=O)(=O)c1ccc(NCc2ccccc2)cc1 ; retrieve measured TGI.
> 100 µM

---
If you can, please state the reported TGI value of CNC(=O)N(CCC#N)[C@H]1CCCC[C@@H]1N(C(=O)NC)c1ccccc1 .
> 100 µM

Fill in: TGI of O=c1c2cc([N+](=O)[O-])ccc2sc2ccsc12 is ___
> 100 µM

Data provenance is PubChem BioAssay (NCI).
